Values were extracted from ChEMBL document CHEMBL3885861.

Organism: Rattus norvegicus
Run description: Open TG-GATES - Regimen: Single
Format: toxicity, organism-based, Sprague-Dawley
Design: regimen Single, gender Male, age 6 weeks
Test conditions: in vivo, po, 0 mg/kg, 3 h, tissue Plasma, route gavage, dose level Control
Measured property: TG (mg/dL)
Just the number please, in mg/dL, no unit attached.

Known results for compounds:
1. CN(C)CCCN1c2ccccc2CCc2ccc(Cl)cc21; 54.2
2. COC1=CC(=O)C[C@@H](C)[C@]12Oc1c(Cl)c(OC)cc(OC)c1C2=O; 97.4
3. NC(N)=Nc1nc(CSCCC(N)=NS(N)(=O)=O)cs1; 55.8
4. CCOc1ccc(NC(=O)CC(C)O)cc1 (stereo unspecified); 50.4
5. O=C(CCCN1CCC(O)(c2ccc(Cl)cc2)CC1)c1ccc(F)cc1; 63.2

I have this compound here, CC1=C(/C=C/C(C)=C/C=C/C(C)=C/CO)C(C)(C)CCC1 , and I need its recorded TG. 58.6
